This collection of values is drawn from PubChem BioAssay AID1159580.

- assayProcedure: chemical genetic growth profiling, strain panel (AID 1159580);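 also: tested at 20 µM; growth read once vehicle control cultures reached saturation at 30 °C; 1 = growth at the plate median or of vehicle wells; lower values mean less growth of the strain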
- cond: S. cerevisiae deletion strains, growth OD, locus YLL041C, strain sdh2
Among all 5,500 compounds or so, about 2,000 (36%) were called active. Not shown: some 18% with an inconclusive outcome. Rule as the data show it: active = normalized growth mostly below about 0.91 (no sharp cut-off); inconclusive = no clear call, values can overlap the other calls; inactive = mostly above about 0.92. This is one part of the list.
A correct response names exactly one class from active, inactive

Consider the following illustrative entries.
CN1CCN(C2=Nc3cc(Cl)ccc3Nc3ccccc32)CC1 | inactive
O=c1c(O)cccc2cc(O)c(O)c(O)c12 | active

# input Look up the recorded call for CC(C)CCCC(C)N (stereo not drawn) in this test.
# output inactive

====

- assayProcedure: chemical genetic growth profiling, strain panel (AID 1159580);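 also: tested at 20 µM; growth read once vehicle control cultures reached saturation at 30 °C; 1 = growth at the plate median or of vehicle wells; lower values mean less growth of the strain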
- cond: S. cerevisiae deletion strains, growth OD, locus YDR363W, strain ESC2, hits give low values
Out of some 5,500 compounds screened, about 2,000 (36%) were called active. Roughly 18% stayed inconclusive and do not appear here. The list shows a part of the results.
metricName: normalized growth
Lab note: jot down the number only; don't add units.

As a guide, the following entries are already answered.
CC(=O)N[C@H](C(=O)O)C(C)(C)SN=O | 0.989
CC(C)NC(C)Cc1ccc(I)cc1 (centres undefined) | 0.995
C#CCn1c(=O)c2c(ncn2C)n(C)c1=O | 0.989
Oc1cc2c(cc1O)[C@H]1c3ccccc3CN[C@@H]1CC2 | 0.985
N[C@@H](Cc1cnc[nH]1)C(=O)O | 0.979

Attention now shifts to the item below.
# input Which measured normalized growth value corresponds to `Cn1cc(C(=O)OCC2CCN(CCNS(C)(=O)=O)CC2)c2ccccc21` ?
# output 1
